Test system: HCV replicon
Assay type: cell-based
REPORTED_ENDPOINT: IC50

Examples from the recorded data:
CCOc1ccc2c(C#N)c(-c3ccc(NC(=O)OC(C)C)cc3)n(C3CCC3)c2c1 [Compound 973] | < 0.5 µM
CCNC(=O)Nc1ccc(-c2c(C#N)c3ccc(OCC)cc3n2C2CCCC2)cc1 [Compound 1143] | < 0.5 µM
C=CCOC(=O)Nc1ccc(-c2c(C#N)c3ccc(OC(F)F)cc3n2CC)cc1 [Compound 1135] | < 0.5 µM
CCOc1ccc2c(C#N)c(-c3ccc(NC(=O)Oc4ccc(OC)cc4)cc3)n(C3CCC3)c2c1 [Compound 978] | 0.5 to 2 µM
CCCCNC(=O)Nc1ccc(-c2c(C#N)c3cc(OC)ccc3n2CC)cc1 [Compound 1012] | 0.5 to 2 µM
CCn1c(-c2ccc(NC(=O)OCCF)cc2)c(C#N)c2ccc(OCCCCl)cc21 [Compound 1033] | < 0.5 µM

Provide reported IC50 for each item, in the same order as listed.
1. CCn1c(-c2ccc(N3CCCS3(=O)=O)cc2)c(C#N)c2ccc(C(F)(F)F)cc21 [Compound 969]
2. CCOc1ccc2c(C#N)c(-c3ccc(NC(=O)O[C@H](C)C4CC4)cc3)n(C3CCC3)c2c1 [Compound 2174]
3. CC(C)(C)OC(=O)Nc1ccc(-c2c(C#N)c3ccc(OCCN4CCCC4)cc3n2C2CCC2)cc1 [Compound 1121]
4. CC(C)OC(=O)Nc1ccc(-c2c(C#N)c3ccc(OCCN4CCOCC4)cc3n2C2CCC2)cc1 [Compound 1271]
5. CCn1c(-c2cccc(NS(=O)(=O)CC)c2)c(C#N)c2ccc(OCCCN3CCOCC3)cc21 [Compound 1035]
6. CCn1c(-c2ccc(NC(=O)OC)cc2)c(C#N)c2ccc(OCCCCl)cc21 [Compound 1029]
7. CCCn1c(-c2ccc(NS(=O)(=O)C3CC3)cc2)c(C#N)c2ccc(OCc3ccccc3)cc21 [Compound 924]

< 0.5 µM
< 0.5 µM
< 0.5 µM
< 0.5 µM
0.5 to 2 µM
0.5 to 2 µM
0.5 to 2 µM

====

For each entry below, report its IC50 value.
Tested on: HCV replicon
Assay type: cell-based

Examples from the recorded data:
CC(C)NC(=O)Nc1ccc(-c2c(C#N)c3ccc(OCc4cccnc4)cc3n2C2CCC2)cc1 | < 0.5 µM
CCn1c(-c2ccc(N(C)S(C)(=O)=O)cc2)c(C#N)c2ccc(C(F)(F)F)cc21 | 0.5 to 2 µM
CCn1c(-c2ccc(NC(=O)OCc3ccccc3)cc2)c(C#N)c2ccc(OCCF)cc21 | < 0.5 µM

API: the following record is the query input.
What value of IC50 has been reported for the following molecule? CCn1c(-c2ccc(N)c(C)c2)c(C#N)c2ccc(OC)cc21
0.5 to 2 µM

====

For each entry below, report its melting point value.

CC(C)NS(=O)(=O)Nc1ccc(-c2c(C#N)c3ccc(Oc4ncccn4)cc3n2C2CCC2)cc1 | 223 to 224 °C
C[C@@H](OC(=O)Nc1ccc(-c2c(C#N)c3ccc(Oc4ncccn4)cc3n2C2CCC2)cc1)C1CC1 | 194 to 196 °C
CC(C)OC(=O)Nc1ccc(-c2c(C#N)c3ccc(Oc4ncccn4)cc3n2C2CCC2)cc1Cl | 165 to 165.5 °C

Provide reported melting point for each item, in the same order as listed.
1. CCCS(=O)(=O)Nc1ccc(-c2c(C#N)c3ccc(OC(F)F)cc3n2CC)cc1
2. C[C@@H](OC(=O)Nc1ccc(-c2c(C#N)c3ccc(Oc4ncccn4)cc3n2C2CC2)cc1)C1CC1
3. C[C@@H](OC(=O)Nc1ccc(-c2c(C#N)c3ccc(-c4ccccn4)cc3n2C2CCC2)cc1)C1CC1
4. CC(C)Nc1ccc(-c2c(C#N)c3ccc(Oc4ncccn4)cc3n2C2CC2)cc1

1: 206 to 208 °C; 2: 154 to 156 °C; 3: 118 to 120 °C; 4: 215 to 217 °C

What value of melting point has been reported for the following compound? C[C@@H](OC(=O)Nc1ccc(-c2c(C#N)c3ccc(-c4ncccn4)cc3n2C2CCC2)cc1)C1CC1
212 to 214 °C

====

Test system: HCV replicon
Type: cell-based
REPORTED_ENDPOINT: IC50

CCCNC(=O)Nc1ccc(-c2c(C#N)c3ccc(OCC)cc3n2C2CCCC2)cc1 | < 0.5 µM
COc1ccc2c(C#N)c(-c3ccc(NC(=O)OCc4ccccc4)cc3)n(C3CCC3)c2c1 | < 0.5 µM
CCn1c(-c2ccc(N3CCNC3=O)cc2)c(C#N)c2ccc(OCCCN3CCCC3)cc21 | < 0.5 µM
CCOc1ccc2c(C#N)c(-c3ccc(NC(=O)OCc4ccccc4)cc3)n(CC3CC3)c2c1 [Compound 1153] | < 0.5 µM
CCNC(=O)Nc1ccc(-c2c(C#N)c3ccc(OC)cc3n2CC)cc1F | 0.5 to 2 µM

Provide reported IC50 for each item, in the same order as listed.
1. CCCOC(=O)Nc1ccc(-c2c(C#N)c3ccc(OCC)cc3n2C2CCCC2)cc1
2. CC(C)NC(=O)Nc1ccc(-c2c(C#N)c3ccc(OCCNC4CC4)cc3n2C2CCC2)cc1

["< 0.5 µM", "< 0.5 µM"]

Provide reported IC50 for each item, in the same order as listed.
1. CCCn1c(-c2cccc(N)c2)c(C#N)c2cc(OCc3ccccc3)ccc21
2. CCOP(=O)(Nc1ccc(-c2c(C#N)c3ccc(OC)cc3n2CC)cc1)OCC
3. CCOc1ccc2c(C#N)c(-c3ccc(NC(C)=O)cc3)n(CC)c2c1
4. CCCCNC(=O)Nc1ccc(-c2c(C#N)c3ccc(OCC)cc3n2CCCC)cc1
5. CCn1c(-c2ccc(NS(=O)(=O)CCCCl)cc2)c(C#N)c2ccc(OC(F)F)cc21
6. C=CCOC(=O)Nc1ccc(-c2c(C#N)c3cc(OC)ccc3n2C2CCC2)cc1
7. CC(C)OC(=O)Nc1ccc(-c2c(C#N)c3ccc(OCc4ccccn4)cc3n2C2CCC2)cc1

0.5 to 2 µM
0.5 to 2 µM
0.5 to 2 µM
< 0.5 µM
< 0.5 µM
0.5 to 2 µM
< 0.5 µM

Provide reported IC50 for each item, in the same order as listed.
1. CCCCNC(=O)Nc1ccc(-c2c(C#N)c3ccc(OCCF)cc3n2CC)cc1
2. CC(C)OC(=O)Nc1ccc(-c2c(C#N)c3ccc(OCC4CCCO4)cc3n2C2CCC2)cc1 (centres unmarked)
3. CCOc1ccc2c(C#N)c(-c3ccc(NS(=O)(=O)C4CC4)cc3)n(C3CCCC3)c2c1

1. < 0.5 µM
2. < 0.5 µM
3. 0.5 to 2 µM

====

System: HCV replicon
Format: cell-based
For each entry below, report its IC50 value.

Examples from the recorded data:
CC(C)OC(=O)Nc1ccc(-c2c(C#N)c3ccc(OCCn4ccnc4)cc3n2C2CCC2)cc1 [Compound 1275] | < 0.5 µM
CCCOc1ccc2c(C#N)c(-c3ccc(NC(=O)NC4CCC4)cc3)n(C(C)C)c2c1 [Compound 1326] | 0.5 to 2 µM

Provide reported IC50 for each item, in the same order as listed.
1. CCn1c(-c2ccc(NC(=O)N3CCCCC3)cc2)c(C#N)c2ccc(OC)cc21 [Compound 1088]
2. CCOC(=O)Nc1ccc(-c2c(C#N)c3ccc(OCC)cc3n2C2CCCC2)cc1 [Compound 1127]
3. CCCOC(=O)Nc1ccc(-c2c(C#N)c3ccc(OC(F)F)cc3n2CC)cc1 [Compound 1132]
4. CCCS(=O)(=O)Nc1ccc(-c2c(C#N)c3ccc(OCC)cc3n2C2CCC2)cc1 [Compound 933]

0.5 to 2 µM
< 0.5 µM
0.5 to 2 µM
0.5 to 2 µM

Provide reported IC50 for each item, in the same order as listed.
1. CCn1c(-c2ccc(NC(=O)C3CC3)cc2)c(C#N)c2ccc(OCCN3CCSCC3)cc21 [Compound 1090]
2. CCCOc1ccc2c(C#N)c(-c3ccc(NC(=O)OC(C)CC)cc3)n(C(C)C)c2c1 (centres unmarked) [Compound 1246]

1: 0.5 to 2 µM; 2: < 0.5 µM

====

Test system: HCV replicon
Type: cell-based
REPORTED_ENDPOINT: IC50

CCn1c(-c2ccc(NC(=O)C3CC3)cc2)c(C#N)c2ccc(OCCN3CCCC3)cc21 [Compound 1054] | 0.5 to 2 µM

Provide reported IC50 for each item, in the same order as listed.
1. CCNC(=O)Nc1ccc(-c2c(C#N)c3cc(OC)ccc3n2CC)cc1 [Compound 1009]
2. N#Cc1c(-c2ccc(N3CCCS3(=O)=O)cc2)n(CCF)c2cc(OC(F)(F)F)ccc12 [Compound 905]
3. CCOc1ccc2c(C#N)c(-c3ccc(NC(=O)OC(C)C(C)(C)C)cc3)n(C3CCC3)c2c1 (stereo not shown) [Compound 1312]
4. CCCOc1ccc2c(C#N)c(-c3ccc(NC(=O)NC(C)CC)cc3)n(C(C)C)c2c1 (stereo not shown) [Compound 1324]
5. CC(C)NC(=O)Nc1ccc(-c2c(C#N)c3ccc(OCCN4CCOCC4)cc3n2C2CCC2)cc1 [Compound 1315]
6. CCCNC(=O)Nc1ccc(-c2c(C#N)c3cc(OC)ccc3n2CCC)cc1 [Compound 1000]
7. CC(C)NC(=O)Nc1ccc(-c2c(C#N)c3ccc(OCCF)cc3n2C2CCC2)cc1 [Compound 1108]

0.5 to 2 µM
< 0.5 µM
< 0.5 µM
< 0.5 µM
0.5 to 2 µM
0.5 to 2 µM
< 0.5 µM
